Observed IC50 values for Complement C3 (Homo sapiens) are listed in what follows.
Numbers only here, please. The scale is µM.

Recorded IC50, per entry:
{"columns": ["molecule", "IC50 / µM"],
 "data": [
  ["CC[C@H](C)[C@H](NC(C)=O)C(=O)N[C@H]1CSSC[C@@H](C(=O)N[C@H](C(N)=O)[C@@H](C)O)NC(=O)[C@H](CCCNC(=N)N)NC(=O)[C@H](Cc2cnc[nH]2)NC(=O)[C@H](Cc2cnc[nH]2)NC(=O)CNC(=O)[C@H](Cc2c[nH]c3ccccc23)NC(=O)[C@H](CC(=O)O)NC(=O)[C@H](CCC(N)=O)NC(=O)[C@H](Cc2c[nH]c3ccccc23)NC(=O)[C@H](C(C)C)NC1=O", 2.2],
  ["CC[C@H](C)[C@H](NC(C)=O)C(=O)N[C@H]1CSSC[C@@H](C(=O)N[C@H](C(N)=O)[C@@H](C)O)NC(=O)[C@H](CCCN=C(N)N)NC(=O)[C@H](Cc2c[nH]cn2)NC(=O)[C@H](Cc2c[nH]cn2)NC(=O)CNC(=O)[C@H](Cc2c[nH]c3ccccc23)NC(=O)[C@H](CC(=O)O)NC(=O)[C@H](CCC(N)=O)NC(=O)[C@H](CO)NC(=O)[C@H](C(C)C)NC1=O", 50.9]
]}

Proceed to the following item.
// assay Complement C3 (Homo sapiens), entry CC[C@H](C)[C@H](NC(C)=O)C(=O)N[C@H]1CSSC[C@@H](C(=O)N[C@H](C(=O)O)[C@@H](C)O)NC(=O)[C@H](CCCN=C(N)N)NC(=O)[C@H](Cc2c[nH]cn2)NC(=O)[C@H](C)NC(=O)CNC(=O)[C@H](Cc2c[nH]c3ccccc23)NC(=O)[C@H](CC(=O)O)NC(=O)[C@H](CCC(N)=O)NC(=O)[C@H](CC2CNc3ccccc32)NC(=O)[C@H](C(C)C)NC1=O (stereo partly drawn) , IC50 value = 10.2

###

# assayed-target: Complement C3 (Homo sapiens, UniProt P01024)
# Sequence (P01024 23-667 limits assumed): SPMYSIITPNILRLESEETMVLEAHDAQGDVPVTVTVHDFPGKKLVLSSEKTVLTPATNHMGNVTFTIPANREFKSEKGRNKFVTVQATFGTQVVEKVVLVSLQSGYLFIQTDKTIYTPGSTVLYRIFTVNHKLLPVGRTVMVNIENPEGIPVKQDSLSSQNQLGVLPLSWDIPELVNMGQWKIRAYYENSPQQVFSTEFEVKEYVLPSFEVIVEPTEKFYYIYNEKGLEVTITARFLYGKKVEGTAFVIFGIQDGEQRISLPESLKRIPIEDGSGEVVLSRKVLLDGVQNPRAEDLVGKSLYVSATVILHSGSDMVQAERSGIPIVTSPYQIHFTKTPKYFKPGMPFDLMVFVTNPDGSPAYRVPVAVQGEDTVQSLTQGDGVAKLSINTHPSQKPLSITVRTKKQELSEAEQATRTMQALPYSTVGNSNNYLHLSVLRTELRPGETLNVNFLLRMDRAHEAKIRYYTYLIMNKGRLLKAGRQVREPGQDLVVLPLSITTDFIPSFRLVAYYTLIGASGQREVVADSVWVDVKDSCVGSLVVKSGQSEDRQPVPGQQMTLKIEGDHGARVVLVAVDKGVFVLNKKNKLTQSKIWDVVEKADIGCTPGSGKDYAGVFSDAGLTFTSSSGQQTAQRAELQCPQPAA
# Sequence (P01024 672-1663 limits assumed): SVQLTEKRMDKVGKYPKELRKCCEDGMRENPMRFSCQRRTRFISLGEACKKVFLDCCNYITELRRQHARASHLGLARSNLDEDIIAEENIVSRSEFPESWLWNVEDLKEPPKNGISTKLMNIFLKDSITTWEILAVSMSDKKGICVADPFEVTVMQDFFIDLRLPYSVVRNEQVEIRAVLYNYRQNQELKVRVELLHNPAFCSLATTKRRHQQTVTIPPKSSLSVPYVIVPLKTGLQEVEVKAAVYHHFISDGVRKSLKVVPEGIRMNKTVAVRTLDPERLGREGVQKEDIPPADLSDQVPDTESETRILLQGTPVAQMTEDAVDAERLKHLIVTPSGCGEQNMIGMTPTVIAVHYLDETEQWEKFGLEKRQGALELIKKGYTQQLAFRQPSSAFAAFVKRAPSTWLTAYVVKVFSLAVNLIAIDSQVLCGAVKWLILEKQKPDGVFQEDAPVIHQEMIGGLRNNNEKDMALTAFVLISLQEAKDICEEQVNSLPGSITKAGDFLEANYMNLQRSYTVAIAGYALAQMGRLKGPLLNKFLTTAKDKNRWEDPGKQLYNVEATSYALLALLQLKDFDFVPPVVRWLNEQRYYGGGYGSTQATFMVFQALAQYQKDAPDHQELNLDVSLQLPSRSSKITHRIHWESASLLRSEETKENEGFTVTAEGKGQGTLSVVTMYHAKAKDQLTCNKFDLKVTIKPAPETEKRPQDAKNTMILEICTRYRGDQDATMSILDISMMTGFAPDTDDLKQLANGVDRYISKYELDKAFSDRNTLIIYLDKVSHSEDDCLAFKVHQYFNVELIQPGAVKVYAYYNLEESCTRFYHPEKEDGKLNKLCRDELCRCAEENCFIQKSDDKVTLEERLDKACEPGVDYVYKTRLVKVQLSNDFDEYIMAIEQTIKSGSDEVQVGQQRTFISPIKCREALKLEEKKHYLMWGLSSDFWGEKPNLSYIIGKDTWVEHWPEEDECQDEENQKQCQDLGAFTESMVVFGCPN
Positions of bridges follow the written chain, without caps; N, C: chain ends. Non-standard residues stand in square brackets, D forms with d. Residues, ends and D or L forms follow the SMILES beside them. Abu = CC[C@H](N)C(=O)O
reported-property: pIC50
Answer as the number alone; pIC50 is minus log10 of concentration in mol/L.

Look over these answered cases.
{"columns": ["compound", "pIC50"],
 "data": [
  ["CC[C@H](C)[C@H](NC(C)=O)C(=O)N[C@H]1CSSC[C@@H](C(=O)N[C@H](C(=O)O)[C@@H](C)O)NC(=O)[C@H](CCCNC(=N)N)NC(=O)[C@H](Cc2cnc[nH]2)NC(=O)[C@H](C)NC(=O)CNC(=O)[C@H](Cc2c[nH]c3ccccc23)NC(=O)[C@H](CC(=O)O)NC(=O)[C@H](CCC(N)=O)NC(=O)[C@H](Cc2ccc3ccccc3c2)NC(=O)[C@H](C(C)C)NC1=O", 5.85],
  ["CC[C@@H]1NC(=O)CNC(=O)[C@H](Cc2c[nH]c3ccccc23)NC(=O)[C@H](CC(=O)O)NC(=O)[C@H](CCC(N)=O)NC(=O)[C@H](Cc2c[nH]c3ccccc23)NC(=O)[C@H](C(C)C)NC(=O)[C@@H](NC(=O)[C@@H](NC(C)=O)[C@@H](C)CC)CSSC[C@@H](C(=O)N[C@H](C(N)=O)[C@@H](C)O)NC(=O)[C@H](CCCN=C(N)N)NC(=O)[C@H](Cc2c[nH]cn2)NC1=O (Ac-ICVWQDWG[Abu]HRCT-NH2; disulfide 2-12)", 5.82]
]}

// below: pIC50 requested for another compound
Reported Complement C3 (Homo sapiens, UniProt P01024) pIC50 for item CC[C@H](C)[C@H](NC(C)=O)C(=O)N[C@H]1CSSC[C@@H](C(=O)N[C@H](C(N)=O)[C@@H](C)O)NC(=O)[C@H](CCCNC(=N)N)NC(=O)[C@H](Cc2cnc[nH]2)NC(=O)[C@H](Cc2cnc[nH]2)NC(=O)CNC(=O)[C@H](Cc2c[nH]c3ccccc23)NC(=O)[C@H](CC(=O)O)NC(=O)[C@H](CCC(N)=O)NC(=O)[C@H](Cc2cnc[nH]2)NC(=O)[C@H](C(C)C)NC1=O was 4.98
